assayedTarget: Aryl hydrocarbon receptor (Homo sapiens) (UniProt P35869)
Sequence (P35869 whole entry, looked up): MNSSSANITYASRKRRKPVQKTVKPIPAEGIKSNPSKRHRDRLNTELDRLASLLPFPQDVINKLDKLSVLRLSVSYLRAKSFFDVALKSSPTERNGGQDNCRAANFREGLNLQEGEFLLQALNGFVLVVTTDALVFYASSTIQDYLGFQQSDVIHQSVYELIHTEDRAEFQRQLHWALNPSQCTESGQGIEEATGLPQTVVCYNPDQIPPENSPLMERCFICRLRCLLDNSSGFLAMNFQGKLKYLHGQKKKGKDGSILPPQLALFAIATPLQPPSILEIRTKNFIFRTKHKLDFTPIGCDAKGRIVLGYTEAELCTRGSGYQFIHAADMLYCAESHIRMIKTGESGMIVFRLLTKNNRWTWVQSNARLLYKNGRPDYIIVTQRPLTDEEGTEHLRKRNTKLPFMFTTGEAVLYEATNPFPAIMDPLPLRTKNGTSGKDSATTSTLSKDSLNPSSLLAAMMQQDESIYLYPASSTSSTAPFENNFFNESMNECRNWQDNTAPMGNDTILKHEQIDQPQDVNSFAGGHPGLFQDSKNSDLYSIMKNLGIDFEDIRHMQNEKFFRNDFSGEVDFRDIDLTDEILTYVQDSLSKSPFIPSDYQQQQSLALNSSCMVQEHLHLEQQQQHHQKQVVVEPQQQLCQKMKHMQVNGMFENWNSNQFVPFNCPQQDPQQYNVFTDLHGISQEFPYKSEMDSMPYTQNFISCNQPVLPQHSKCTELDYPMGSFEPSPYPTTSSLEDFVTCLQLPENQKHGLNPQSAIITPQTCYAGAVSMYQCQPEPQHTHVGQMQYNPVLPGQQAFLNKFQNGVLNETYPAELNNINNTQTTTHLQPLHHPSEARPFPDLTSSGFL
experiment: ATG_Ahr_CIS: Attagene CIS-FACTORIAL HepG2 Assay for human Aryl Hydrocarbon Receptor (Ahr) (AID 2282930)
assayConditions: HepG2 AhR cis-factorial reporter transcription; actives raise or lower the signal
The source made the active and inactive calls. How the source made its calls: active means hit-call score of the fitted dose curve at least 0.9, where 1 is the maximum; inactive means score below 0.9.
recordedMetric: AC50

compound	AC50
Cc1ccc2ncccc2c1	inactive
COc1cccc2c1C(=O)c1c(O)c3c(c(O)c1C2=O)C[C@@](O)(C(=O)CO)C[C@@H]3O[C@H]1C[C@H](N)[C@H](O)[C@H](C)O1	inactive
CC1(C)CC(N=C=O)CC(C)(CN=C=O)C1 (centres undefined)	inactive
CCCCOC(=O)CCCCCCCCC(=O)OCCCC	inactive
CN[C@H]1CC[C@@H](c2ccc(Cl)c(Cl)c2)c2ccc(S(N)(=O)=O)cc21	inactive

# input // lookup AC50 for `CCCc1cc(=O)[nH]c(=S)[nH]1`
# output 63.9 µM (active)

# input Please look up its AC50: `Cc1cccc([N+](=O)[O-])c1C`
# output inactive

# input What value of AC50 has been reported for the following compound? `CCOC(=O)C(C)(C)Oc1ccc(Cl)cc1`
# output inactive

# input Which AC50 is listed for `CC=Cc1ccc(O)c(OC)c1` ?
# output 73.5 µM (active)

====

Read-out: Monokine induced gamma interferon (MIG), CXCL9 (gene 4283)
experiment: BSK_SAg_MIG: BioMAP Diversity Plus: SAg Assay for Monokine induced gamma interferon (MIG) Biomarker Activity (AID 2283092)
assayConditions: primary human HUVEC with PBMC; actives raise or lower the signal
Active and inactive are the calls of the source. How the source made its calls: active means hit-call score of the fitted dose curve at least 0.9, where 1 is the maximum; inactive means score below 0.9.
recordedMetric: AC50

chemSmiles	result
C1CCC(SSC2CCCCC2)CC1	inactive
NCCO	inactive
CCCCCCCCCCC	inactive
CC(C)c1ccc(C(=O)N=C(N)N)cc1S(C)(=O)=O	inactive

# input For `CCCCCCCCCCCC(=O)OC` , what is its reported AC50?
# output inactive

# input AC50 for `Cc1cccc(C)c1O` ?
# output inactive

# input Need AC50 of `CCc1c(C(=O)NN2CCCCC2)nn(-c2ccc(Cl)cc2Cl)c1-c1ccc(Br)cc1` , thanks.
# output 9.99 µM (active)

# input Tell me the measured AC50 of `COc1cc(C=O)ccc1O` , please.
# output inactive

# input # query: AC50 of entry `Cc1ccc(C(C)C)c(O)c1`
# output inactive

# input Query (molecule): `Oc1ccc2c(c1)OC[C@@H](N1CCC(O)(c3ccc(F)cc3)CC1)[C@H]2O` ; field requested: AC50
# output inactive

# input What does the data say about its AC50? Entry: `FC(F)(F)C(F)(F)C(F)(F)C(F)(F)C(F)(F)C(F)(F)CCI`
# output inactive

# input Which measured AC50 value corresponds to `Cc1ccccc1Cl` ?
# output inactive

# input // returns reported AC50 for input `CC(=O)Oc1ccccc1C(=O)O`
# output inactive

# input Which measured AC50 value corresponds to `CN1CCN(Cc2cc(-c3ccc4[nH]c(=O)oc4c3)co2)[C@@H](c2ccc(F)cc2)C1` ?
# output inactive

# input Looking for the measured AC50 of `CNC(=O)[C@H]1O[C@@H](n2cnc3c(NCc4cc(Cl)ccc4OCc4cc(C)no4)ncnc32)[C@H](O)[C@@H]1N` , can you help?
# output inactive

# input Item `CCCc1cc(=O)[nH]c(=S)[nH]1` has what recorded AC50?
# output inactive

# input Can you look up the measured AC50 of `Cc1cccc([N+](=O)[O-])c1C` for me?
# output inactive

# input Fill blank: measured AC50 of the molecule `Cc1oc(-c2ccccc2)nc1CCOc1cccc2c1ccn2CCC(=O)O` is ____.
# output inactive

====

experiment: ATG_E_Box_CIS: Attagene CIS-FACTORIAL HepG2 Assay for human Enhancer Box (E-box) (AID 2282936)
assayConditions: HepG2 E-box cis-reporter transcription, actives raise or lower the signal
Activity calls are given as the source filed them. How the source made its calls: active means hit-call score of the fitted dose curve at least 0.9, where 1 is the maximum; inactive means score below 0.9.
Your response should consist of one outcome taken from active, inactive

compound	answerLabel
COc1cc(S(=O)(=O)O)c(C)cc1N=Nc1c(O)ccc2cc(S(=O)(=O)O)ccc12	inactive
COC(=O)c1ccc(O)cc1	inactive
NS(=O)(=O)c1cc2c(cc1Cl)NCNS2(=O)=O	inactive
O=C(N[C@@H](Cc1ccccc1)[C@@H](O)C(=O)N1C[C@@H](O)[C@@H](O)C1)c1cc2cc(Cl)ccc2[nH]1	active
CN1CCN(Cc2cc(-c3ccc4[nH]c(=O)oc4c3)co2)[C@@H](c2ccc(F)cc2)C1	inactive

Continue with the next compound.
# input What call does the record list for `CCCCCCCCCCCCCO` ?
# output active

====

Read-out: Pyruvate Dehydrogenase Kinase 4 (PDK4), PDK4 (gene 5166)
experiment: LTEA_HepaRG_PDK4: Life Technologies and Expression Analysis (LTEA) Assay for Pyruvate Dehydrogenase Kinase 4 (PDK4) using HepaRG (AID 2283525)
assayConditions: mRNA level, 48 h; actives raise or lower the signal
Method: LTEA_HepaRG is a cell based, multiplexed-readout assay that uses HepaRG, a human liver cell line, with measurements taken at 48 hours after chemical dosing on a 96-well plate.LTEA_HepaRG_PDK4 is one of 102 assay component(s) measured in the LTEA HepaRG cell culture assay. It is a marker of Diseases associated with PDK4 including Platelet Glycoprotein Iv Deficiency and Diabetes Mellitus, Noninsulin-Dependent.Data from the assay component LTEA_HepaRG_PDK4 was analyzed into 1 endpoint. […]
Calls of active or inactive are those of the source. How the source made its calls: active means hit-call score of the fitted dose curve at least 0.9, where 1 is the maximum; inactive means score below 0.9.
Respond with a class label; see active, inactive

compound	answerLabel
Oc1ccc2ccccc2c1N=Nc1ccccc1	active

# input Record request — test call for `Cc1ccc(Cl)cc1`
# output inactive

# input Please state the recorded outcome for this compound: `Cc1ccc(N(C)C)cc1`
# output inactive

# input Record request — test call for CC1(C)CC(N=C=O)CC(C)(CN=C=O)C1 (stereo not given)
# output inactive

# input Recorded test outcome, item CC(CO)OC(C)CO (stereo not given) (tested in a mixture with another compound)
# output inactive

# input Query: recorded result category for `COc1cc(C=O)ccc1O` in this test
# output inactive

# input Which outcome did this test record for the compound `CC1=C(/C=C/C(C)=C/C=C/C(C)=C/CO)C(C)(C)CCC1` ?
# output inactive

# input What was the test verdict on `CCCCOC(=O)CCCCCCCCC(=O)OCCCC` ?
# output inactive

# input Recorded test outcome, item `CCOC(=O)C(C)(C)Oc1ccc(Cl)cc1`
# output active

# input Hello, I am checking results. What call was entered for `Nc1nc(N)c2nc(CNc3ccc(C(=O)N[C@@H](CCC(=O)O)C(=O)O)cc3)cnc2n1` ?
# output active

# input Short answer needed: outcome of this test for `Cc1cccc([N+](=O)[O-])c1C` ?
# output inactive

# input Each compound tested received a call. Report the one for `COc1cc(S(=O)(=O)O)c(C)cc1N=Nc1c(O)ccc2cc(S(=O)(=O)O)ccc12` .
# output inactive

# input # outcome recorded in this test, key = `Cc1ccc(C)c(O)c1C`
# output inactive

# input Status in this test for `CCCCCCCCCCCCCO` ?
# output inactive

# input Fill in: this test's call for `Oc1ccc2c(c1)OC[C@@H](N1CCC(O)(c3ccc(F)cc3)CC1)[C@H]2O` is ___
# output inactive

# input Just curious, what result did `CCCCCCCCCCO` get here?
# output inactive

# input Just curious, what result did `COCCOCCOC` get here?
# output inactive

# input # outcome recorded in this test, key = `CCCCCCC(=O)OCC`
# output inactive

# input Call for entry `COC(=O)c1ccc(O)cc1` :
# output inactive

====

Read-out: Macrophage colony-stimulating factor (MCSF), CSF1 (gene 1435)
experiment: BSK_hDFCGF_MCSF: BioMAP Diversity Plus: hDFCGF Assay for Macrophage colony-stimulating factor (MCSF) Biomarker Activity (AID 2283060)
assayConditions: primary human foreskin fibroblasts; actives raise or lower the signal
Activity calls are given as the source filed them. The calls were made as follows: active = hit-call score of the fitted dose curve at least 0.9, where 1 is the maximum; inactive = score below 0.9.
Your reply should match one of these outcome classes. active, inactive

// known answers, use as guide
compound	answerLabel
Cc1nc(-c2ccc3c(c2)CCN(CCC2CCC(NC(=O)/C=C/c4ccc(F)cc4)CC2)CC3)no1 (centres undefined)	inactive
COC(=O)c1ccc(O)cc1	inactive
Clc1cc(Cl)c(Cl)cc1Cl	inactive
C=CCc1ccc(O)c(OC)c1	inactive
Nc1ccc2c(c1)C(=O)c1ccccc1C2=O	inactive

# input Short answer needed: outcome of this test for `O=C(OCCCCCOC(=O)c1ccccc1)c1ccccc1` ?
# output inactive

# input So what was the verdict on `Cc1ccc(C(C)C)c(O)c1` in this test?
# output inactive

# input Hey, what did the test say about `CC(=O)OCCOCCOCCOC(C)=O` ?
# output inactive

====

experiment: Tanguay_ZF_120hpf_PFIN_legacy: (Legacy) Oregon State University Tanguay Lab 120 Hour Post-fertilization zebrafish Assay for Pectoral Fin Malformation (AID 2283648);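 further: each larva judged yes or no for fin defect by brightfield with dead larvae skipped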
Inconclusive results are not listed. Activity calls are given as the source filed them. How the source made its calls: active means hit-call score of the fitted dose curve at least 0.9, where 1 is the maximum; inconclusive means response in the unintended direction; inactive means score below 0.9.
Assign a class; possible classes are active, inactive

Here's what some known entries look like.
chemSmiles	answerLabel
CC(=O)OC/C=C(\C)CCC=C(C)C	inactive
CN[C@H]1CC[C@@H](c2ccc(Cl)c(Cl)c2)c2ccc(S(N)(=O)=O)cc21	inactive
Oc1ccc2c(c1)OC[C@@H](N1CCC(O)(c3ccc(F)cc3)CC1)[C@H]2O	inactive
CCCCCCCC=O	inactive
C=CCOC(=O)c1ccccc1C(=O)OCC=C	inactive
O=C(OCCCCCOC(=O)c1ccccc1)c1ccccc1	inactive

# input Called result for `CC(=O)OCCOCCOCCOC(C)=O`
# output inactive

# input Look up the recorded call for `CC=Cc1ccc(O)c(OC)c1` in this test.
# output inactive

# input Hello, I am checking results. What call was entered for `O=C(O)Cc1ccccc1Nc1c(Cl)cccc1Cl` ?
# output inactive

# input For this compound, state the assay outcome: `Cc1ccc(Cl)cc1`
# output inactive

# input Tell me the recorded outcome of this test for `COC(=O)c1ccc(O)cc1` .
# output inactive

# input Test call, this compound: `Cc1ccc2ncccc2c1`
# output inactive

# input For `FC(F)(F)C(F)(F)C(F)(F)C(F)(F)C(F)(F)C(F)(F)CCI` , which call appears in the assay record?
# output inactive

# input Please share the test call associated with `CCCCCCCCCCCC(=O)OC` .
# output inactive

# input Per the assay record, what outcome was assigned to `Cc1ccc(N(C)C)cc1` ?
# output inactive

# input Given `CCCCCCCCCCCCCCCCCC(=O)O` , state the outcome it received in this test.
# output inactive

# input Dear all, I need the recorded test outcome for `Cc1cc(NC(=O)C(=O)O)cc(C)c1Oc1ccc(O)c2c1CCC2` , thank you.
# output active

# input // param item: `CCCCCCCCCCC` ; yields the recorded call
# output inactive

# input So what was the verdict on `O=c1c(O)c(-c2ccc(O)c(O)c2)oc2cc(O)cc(O)c12` in this test?
# output inactive

# input Assay outcome for `CCCCCC(=O)O` : what was it?
# output inactive

# input Please let me know the test result on file for `CC1=C(/C=C/C(C)=C/C=C/C(C)=C/CO)C(C)(C)CCC1` .
# output inactive

# input Tell me the assay call for `Cc1cc(=O)[nH]c(=S)[nH]1` please.
# output inactive

# input Per the assay record, what outcome was assigned to `Nc1nc(N)c2nc(CNc3ccc(C(=O)N[C@@H](CCC(=O)O)C(=O)O)cc3)cnc2n1` ?
# output inactive

# input Could you kindly confirm the outcome this assay logged for `CCCCCCCCCCO` ?
# output inactive

# input Recorded test call requested for `Cc1ccc(C)c(O)c1C`
# output inactive

# input # lookup: test call for `Oc1ccc2ccccc2c1N=Nc1ccccc1`
# output inactive

# input What did this assay record as the result for `NC(=O)Cn1c(=O)cc(CCN2CCN(c3nccc4sccc34)CC2)c2ccc(F)cc21` ?
# output inactive

# input Query: recorded result category for `Cc1c(C(=O)O)c(O)cc2c1C(=O)c1c(O)c([C@@H]3O[C@H](CO)[C@@H](O)[C@H](O)[C@H]3O)c(O)c(O)c1C2=O` in this test
# output inactive
